Reference source for all entries: the supplement of paper PMC11780869

system: Bacillus subtilis; test: cleaved RNA product abundance (RNA/gDNA barcode ratio) relative to median wild-type variant (ratio to wild type); higher = more accumulation of the downstream cleavage product; details: experiment (reporter, strain, medium): exp 4a: truncated aprE reporter, strain BJT201 with 2% xylose (RNase J1 expressed); cleavage site: cggR-gapA (positions -7 to +36 mutated)
Returns rule met if the recorded cleaved RNA product abundance is greater than or equal to 0.4, and rule not met otherwise.

{"columns": ["residue string", "class"],
 "data": [
  ["ACAGACGAAGGAGCCGCAAAGAAGTTATAAAAGGATGAATAATCCCTCAATATAAATATCTCTCACTTATTTAAA", "rule not met"],
  ["ACAGACGAAGGAGCCGCAAAGAAGTTATTAGGGGATGAATAATCCCTGAATATAAATATCTCTCACTTATTTAAA", "rule not met"],
  ["ACAGACGAAGGAGCCGCAAAGAAGTTATTAAGGGAAGAATAATCCCTCATTATAAATATCTCTCACTTATTTAAA", "rule not met"],
  ["ACAGACGAAGGAGCCGCAAAGAAGTTATTAAGGGATGAATAATCCCTCAAATATAAATATCTCTCACTTATTTAA", "rule met"],
  ["ACAGACGAAGGAGCCGCAAAGAAGTTATTAAGGTATGAATAATCCCTCAATTTAAATATCTCTCACTTATTTAAA", "rule not met"]
]}

* * *

test system: Bacillus subtilis; experiment: cleaved RNA product abundance (RNA/gDNA barcode ratio) relative to median wild-type variant (ratio to wild type); higher = more accumulation of the downstream cleavage product; conditions: experiment (reporter, strain, medium): exp 4a: truncated aprE reporter, strain BJT201 with 2% xylose (RNase J1 expressed); cleavage site: cggR-gapA (positions -7 to +36 mutated)
Reported values of cleaved RNA product abundance for individual entries

{"columns": ["residue string", "study system", "cleaved RNA product abundance"],
 "data": [
  ["ACAGACGAAGGAGCCGCTAAGAAGTTATTAAGGGATGAATTATCCCTCAATATAAATATCTCTCACTTATTTAAA", "Bacillus subtilis", 0.874],
  ["ACAGACGAAGGAGCCGCAAAGAAGTTATTAAGGGATGAATAATTCCTCAATATAAATATCTCTCACTTATTTAAA", "Bacillus subtilis", 0.616],
  ["ACAGACGAAGGAGCCGCAAAGAAGTTATCAAGGAATGAATAATCCCTCAATATAAATATCTCTCACTTATTTAAA", "Bacillus subtilis", 0.11],
  ["ACAGACGAAGGAGCCGCAAAGAAGTTATTAATGGATGCATAATCCCTCAATATAAATATCTCTCACTTATTTAAA", "Bacillus subtilis", 0.169]
]}

* * *

system: Bacillus subtilis; assay: cleaved RNA product abundance (RNA/gDNA barcode ratio) relative to median wild-type variant (ratio to wild type); higher = more accumulation of the downstream cleavage product; conditions: experiment (reporter, strain, medium): exp 4a: truncated aprE reporter, strain BJT201 with 2% xylose (RNase J1 expressed); cleavage site: cggR-gapA (positions -7 to +36 mutated)

{"columns": ["residue string", "cleaved RNA product abundance"],
 "data": [
  ["ACAGACGAAGGAGCCGCAACGAAGTTATTAAGGGTTGAATAATCCCTCAATATAAATATCTCTCACTTATTTAAA", 0.508],
  ["ACAGACGAAGGAGCCGCAAAGAAGTTATTAAAGGATGAATAATCCCTCAATGTAAATATCTCTCACTTATTTAAA", 0.0731],
  ["ACAGACGAAGGAGCCGCACAGAAGTGATTAAGGGATGAATAATCCCTCAATATAAATATCTCTCACTTATTTAAA", 0.311],
  ["ACAGACGAAGGAGCCGCAAAGAAGTTATTAAGGGATGAATAATGCCTCAATAGAAATATCTCTCACTTATTTAAA", 0.0653],
  ["ACAGACGAAGGAGCCGCAAAGAAGTTATTAAGGTAAGAATAATCCCTCAATATAAATATCTCTCACTTATTTAAA", 0.0843],
  ["ACAGACGAAGGAGCCGCAAAGAAGTTATTAAGGGATGAATAACCCCTCAATATATATATCTCTCACTTATTTAAA", 0.739],
  ["ACAGACGAAGGAGCCGCAAAGAAGTTATTAAGGGATGAATAATCCTTCAATATAAATATCTCTCACTTATTTAAG", 0.558]
]}

* * *

tested on: Bacillus subtilis; assay: cleaved RNA product abundance (RNA/gDNA barcode ratio) relative to median wild-type variant (ratio to wild type); higher = more accumulation of the downstream cleavage product; settings: experiment (reporter, strain, medium): exp 6: tetM reporter, strain 168; cleavage site: cggR-gapA (positions -7 to +36 mutated)
Reported values of cleaved RNA product abundance for individual entries
measured metric: cleaved RNA product abundance

{"columns": ["residue string", "measured metric", "result"],
 "data": [
  ["ACAGACGAAGGAGCCGCAAAGAAGTTATTAAGGGATGAATAATGCCTCAATATAAATATCTCTCACTTATTTAAA", "cleaved RNA product abundance", 0.128],
  ["ACAGACGAAGGAGCCGCAAAGAAGTTATTAAGGGATGAATAATCCCTCATTATAAATATCTCTCACTTATTTAAA", "cleaved RNA product abundance", 0.395],
  ["ACAGACGAAGGAGCCGCAAAGAAGTTATTAAGGGATGTATAATCCCTCAATATAAATATCTCTCACTTATTTAAA", "cleaved RNA product abundance", 0.798],
  ["ACAGACGAAGGAGCCGCAAAGAAGTTATTAAGGGATGATTAATCCCTCAATATAAATATCTCTCACTTATTTAAA", "cleaved RNA product abundance", 0.94]
]}

* * *

tested on: Bacillus subtilis; test: cleaved RNA product abundance (RNA/gDNA barcode ratio) relative to median wild-type variant (ratio to wild type); higher = more accumulation of the downstream cleavage product; conditions: experiment (reporter, strain, medium): exp 4a: truncated aprE reporter, strain BJT201 with 2% xylose (RNase J1 expressed); cleavage site: cggR-gapA (positions -7 to +36 mutated)
Returns true (1) if the recorded cleaved RNA product abundance is greater than or equal to 0.3, and false (0) otherwise.

{"columns": ["residue string", "class"],
 "data": [
  ["ACAGACGAAGGAGCCGCAAAGAAGTTATTAGGGGATGAATAATCCCTCAATATAAATATCTCTCACTTATTTAAA", "true (1)"],
  ["ACAGACGAAGGAGCCGCAAAGAAGTTATTAAGGGATGACTAATCCTTCAATATAAATATCTCTCACTTATTTAAA", "false (0)"],
  ["ACAGACGAAGGAGCCGCAAAGAAAATATTAAGGGATGAATAATCCCTCAATATAAATATCTCTCACTTATTTAAA", "true (1)"],
  ["ACAGACGAAGGAGCCGCAAAGAAGTTTTTAAGAGATGAATAATCCCTCAATATAAATATCTCTCACTTATTTAAA", "false (0)"],
  ["ACAGACGAAGGAGCCGCAAAGAAATTATTAAGGGATGAATAATCCCTCAATATATATATCTCTCACTTATTTAAA", "true (1)"],
  ["ACAGACGAAGGAGCCGCAAAGAAGTTATTAAGGGATGAATAATCTCTCAATATATATATCTCTCACTTATTTAAA", "true (1)"],
  ["ACAGACGAAGGAGCCGCAAAGAAGTTTATAAGGGATGAATAATCCCTCAATATAAATATCTCTCACTTATTTAAA", "true (1)"],
  ["ACAGACGAAGGAGCCGCAAAGAAGTTATTAAGGGATGAATAATGCCTCAATATAAATATCTCTCACTTATTTAAA", "false (0)"],
  ["ACAGACGAAGGAGCCGCAAAGAAGTTATTAAGCGATGAATAATCCATCAATATAAATATCTCTCACTTATTTAAA", "false (0)"],
  ["ACAGACGAAGGAGCCGCAAAGAAGTCATTAAGGGATGAATAATCCGTCAATATAAATATCTCTCACTTATTTAAA", "false (0)"],
  ["ACAGACGAAGGAGCCGCAAATAAGTTATTAAGGGATAAATAATCCCTCAATATAAATATCTCTCACTTATTTAAA", "true (1)"],
  ["ACAGACGAAGGAGCCGCAAAGAAGTCATTAAGGGATGAATAATCCCTCAATATAAATAACTCTCACTTATTTAAA", "false (0)"],
  ["ACAGACGAAGGAGCCGCAAAGAAATTATTAAAGGATGAATAATCCCTCAATATAAATATCTCTCACTTATTTAAA", "false (0)"],
  ["ACAGACGAAGGAGCCGCAAAGAAGTTATTAAGGGATGAATAATCCCTCAATATAAATATCTCTCACTTTTTAAAG", "true (1)"],
  ["ACAGACGAAGGAGCCGCAGAGAAGTTATTAAGGGATGAATAATCCCTAAATATAAATATCTCTCACTTATTTAAA", "true (1)"],
  ["ACAGACGAAGGAGCCGCAGAGAAGTTATTAAGGGATTAATAATCCCTCAATATAAATATCTCTCACTTATTTAAA", "true (1)"],
  ["ACAGACGAAGGAGCCGCAAAGAAGGTCTTAAGGGATGAATAATCCCTCAATATAAATATCTCTCACTTATTTAAA", "false (0)"],
  ["ACAGACGAAGGAGCCGCAATAAAGTTATTAAGGGATGAATAATCCCTCAATATAAATATCTCTCACTTATTTAAA", "true (1)"],
  ["ACAGACGAAGGAGCCGCAAAGTAGTTATTAAGGGATGAATAAGCCCTCAATATAAATATCTCTCACTTATTTAAA", "true (1)"],
  ["ACAGACGAAGGAGCCGCAAAGAAGTTATAAGGGGATGAATAATCCCTCAATATAAATATCTCTCACTTATTTAAA", "true (1)"],
  ["ACAGACGAAGGAGCCGCAAAGAAGTTATTAAGGGATGAATAATCCCTCAATATAAATACATCTCACTTATTTAAA", "true (1)"],
  ["ACAGACGAAGGAGCCGCAAAGAAGTTATTAAGGGATGAGTAATTCCTCAATATAAATATCTCTCACTTATTTAAA", "true (1)"],
  ["ACAGACGAAGGAGCCGCAAAGAAGTTATTGAGGGATGAATAATCCCTCAATATAAATATCTCTCACTTATTTAAA", "false (0)"],
  ["ACAGACGAAGGAGCCGCAAAGAAGTTATTAAGTGATGAATAATCCGTCAATATAAATATCTCTCACTTATTTAAA", "false (0)"],
  ["ACAGACGAAGGAGCCGCAAAGAAGTTATTTAGGGATGAATAATCACTCAATATAAATATCTCTCACTTATTTAAA", "false (0)"],
  ["ACAGACGAAGGAGCCGCAAAGAAGTTATTAAGGGATTAATAATCCCTCAATGTAAATATCTCTCACTTATTTAAA", "false (0)"]
]}
